Ref: patent US20250221953A1

# Tested on: Jurkat T cells
# Assay type: cell-based, human
# EXPERIMENTAL SETUP: IL-2 production level in treated group compared to control group; 48 hours treatment, then anti-CD3/anti-CD28 12 hours
ASSAY METRIC: Relative changed percentage (%)
One number for each entry, in %.

CCCCCCCC/C=C\CCCCCCCCCCCCCC(=O)O | 37.68
O=C1O[C@H]([C@@H](O)CO)C(O)=C1O | 14.49
CCCCCCCCCCCCCC(=O)O | −17.39
CC1=CC(=O)C(C(C)C)=CC1=O | 4.558
CS(C)(=O)=O | −17.53

Hi! Can you tell me Relative changed percentage (%) for each of these compounds?
1. N[C@@H](Cc1ccc(O)cc1)C(=O)O
2. CC1=C(/C=C/C(C)=C/C=C/C(C)=C/C=C/C=C(C)/C=C/C=C(C)/C=C/C2=C(C)C[C@@H](O)CC2(C)C)C(C)(C)C[C@H](O)C1
3. C=C1CC[C@H](O)C/C1=C/C=C1\CCC[C@]2(C)[C@@H]([C@H](C)/C=C/[C@H](C)C(C)C)CC[C@@H]12
4. O[C@H]1[C@H](O)[C@@H](O)[C@H](O)[C@@H](O)[C@H]1O [MYO-INOSITOL]

// result
1: −13.45; 2: −1.652; 3: 16.01; 4: 40.7157
